Values were extracted from patent US20210139581A1.

Target: T1, human CD33 (human, UniProt P20138 18-259, limits assumed)
T1 construct: Human CD33 immobilized on the BLI sensor tip or the BIAcore C1 chip; also called Siglec-3
T1 sequence (P20138 18-259 limits assumed): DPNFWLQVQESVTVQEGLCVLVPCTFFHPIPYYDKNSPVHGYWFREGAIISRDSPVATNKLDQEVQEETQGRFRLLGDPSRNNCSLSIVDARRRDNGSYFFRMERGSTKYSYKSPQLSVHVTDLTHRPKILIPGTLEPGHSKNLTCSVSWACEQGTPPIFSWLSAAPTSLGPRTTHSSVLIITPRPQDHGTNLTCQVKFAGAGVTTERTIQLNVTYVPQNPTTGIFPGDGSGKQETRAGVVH
Test: SPR (BIAcore), Fab over CD33 on C1 chip
kon listing for selected binders.
Just the number please, in M⁻¹ s⁻¹, no unit attached.

Worked cases, kon given:
| Binder | Observable | Meas Value |
| --- | --- | --- |
| AB-H6 (antibody, V domains shown, Humanized variant of murine 2F5.1) VH: QVQLVQSGAEVKKPGASVKVSCKASGYTFTDYNLHWVRQAPGQGLEWMGFIYPSNGITGYAQKFQGRVTMTVDTSTSTAYMELSSLRSEDTAVYYCARSTVDYFDYWGQGTTVTVSS VL: DIQMTQSPSSLSASVGDRVTITCRASQSVSTSTYSYMHWYQQKPGKAPKLLIYYASNLESGVPSRFSGSGSGTDFTLTISSLQPEDFATYYCQHSWEIPLTFGQGTKLEIK | kon | 1.1e+06 |
| AB-H24 (antibody, V domains shown, Humanized variant of murine 2F5.1; also called AB-24) VH: QVQLVQSGAEVKKPGASVKISCKASGYTFTDYNLHWVRQAPGQRLEWIGFIYPSNGITGYSQKFQGKATLTVDTSASTAYMELSSLRSEDTAVYYCARSTVDYFDYWGQGTTVTVSS VL: DIQMTQSPSSLSASVGDRVTITCRASQSVSTSTYSYMHWYQQKPGKAPKLLIKYASNLESGVPSRFSGSGSGTDFTLTISSLQPEDFATYYCQHSWEIPLTFGQGTKLEIK | kon | 379000 |

Read the next record carefully.
-- ask Look up kon for this binder: AB-H64 (antibody, V domains shown, Humanized variant of murine 2F5.1; also called parental humanized antibody) VH: QVQLVQSGAEVKKPGASVKISCKASGYTFTDYNLHWVRQAPGQGLEWIGFIYPSNGITGYAQKFQGRATLTVDNSTSTAYMELSSLRSEDTAVYYCARSTVDYFDYWGQGTLLTVSS VL: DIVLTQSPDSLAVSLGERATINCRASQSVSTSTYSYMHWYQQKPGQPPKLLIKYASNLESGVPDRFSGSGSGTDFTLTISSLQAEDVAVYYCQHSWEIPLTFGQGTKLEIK
-- reply 1.03e+06
